# Species on record: Rattus norvegicus
# assay.overview: Open TG-GATES - Regimen: Daily Repeat
# Format: toxicity, organism-based, Sprague-Dawley
# Design: regimen Daily Repeat, gender Male, age 6 weeks
# settings: in vivo, po, 0 mg/kg, […], tissue Plasma, route gavage, dose level Control, time 7 day
compounds and their reported CRE
Answer format: numeric, mg/dL implied, no suffix.

CCOC(=O)CCC(=O)O[C@H]1[C@H](O[C@@H]2[C@@H](C)[C@H](O[C@H]3C[C@@](C)(OC)[C@@H](O)[C@H](C)O3)[C@@H](C)C(=O)O[C@H](CC)[C@@](C)(O)[C@H](O)[C@@H](C)C(=O)[C@H](C)C[C@@]2(C)O)O[C@H](C)C[C@@H]1N(C)C [ERYTHROMYCIN ETHYLSUCCINATE] ... 0.2
CCCNC(=O)NS(=O)(=O)c1ccc(Cl)cc1 [CHLORPROPAMIDE] ... 0.2

Notebook: CN(C)CCCN1c2ccccc2CCc2ccccc21 [IMIPRAMINE] , CRE read as 0.2

----------
molecules and their reported TC
# Organism: Rattus norvegicus
# assay.overview: Open TG-GATES - Regimen: Daily Repeat
# Assay type: toxicity, organism-based, Sprague-Dawley
# Design: regimen Daily Repeat, gender Male, age 6 weeks
# settings: in vivo, po, 100 mg/kg, […], tissue Plasma, route gavage, dose level Low, time 28 day
Kindly write the number and append the unit.

Previously resolved entries follow.
COc1ccc2[nH]c([S+]([O-])Cc3ncc(C)c(OC)c3C)nc2c1 (stereo not given) ... 69.2 mg/dL
CCOC(=O)CCC(=O)O[C@H]1[C@H](O[C@@H]2[C@@H](C)[C@H](O[C@H]3C[C@@](C)(OC)[C@@H](O)[C@H](C)O3)[C@@H](C)C(=O)O[C@H](CC)[C@@](C)(O)[C@H](O)[C@@H](C)C(=O)[C@H](C)C[C@@]2(C)O)O[C@H](C)C[C@@H]1N(C)C [ERYTHROMYCIN ETHYLSUCCINATE] ... 78.8 mg/dL
NC(N)=Nc1nc(CSCCC(N)=NS(N)(=O)=O)cs1 ... 57.8 mg/dL
CCOc1ccc(NC(=O)CC(C)O)cc1 (stereo not given) ... 70.4 mg/dL

Proceeding to the next molecule to report its TC.
Notebook: COC1=CC(=O)C[C@@H](C)[C@]12Oc1c(Cl)c(OC)cc(OC)c1C2=O , TC read as 66.2 mg/dL

----------
# Species on record: Rattus norvegicus
# assay.overview: Open TG-GATES - Regimen: Daily Repeat
# Type: toxicity, organism-based, Sprague-Dawley
# Design: regimen Daily Repeat, gender Male, age 6 weeks
# settings: in vivo, po, 1000 mg/kg, […], tissue Kidney, route gavage, dose level High, time 7 day
measured.quantity: KIDNEY_TOTAL (g)
Answer format: numeric, g implied, no suffix.

CCOc1ccc(NC(=O)CC(C)O)cc1 (stereo unspecified) ... 2.3

Notebook: CC(C)OC(=O)C(C)(C)Oc1ccc(C(=O)c2ccc(Cl)cc2)cc1 [FENOFIBRATE] , KIDNEY_TOTAL read as 2.2

Notebook: NC(N)=Nc1nc(CSCCC(N)=NS(N)(=O)=O)cs1 , KIDNEY_TOTAL read as 2.4

Notebook: COc1ccc2[nH]c([S+]([O-])Cc3ncc(C)c(OC)c3C)nc2c1 (stereo unspecified) , KIDNEY_TOTAL read as 2.1

Notebook: CCOC(=O)CCC(=O)O[C@H]1[C@H](O[C@@H]2[C@@H](C)[C@H](O[C@H]3C[C@@](C)(OC)[C@@H](O)[C@H](C)O3)[C@@H](C)C(=O)O[C@H](CC)[C@@](C)(O)[C@H](O)[C@@H](C)C(=O)[C@H](C)C[C@@]2(C)O)O[C@H](C)C[C@@H]1N(C)C [ERYTHROMYCIN ETHYLSUCCINATE] , KIDNEY_TOTAL read as 2.2

Notebook: COC1=CC(=O)C[C@@H](C)[C@]12Oc1c(Cl)c(OC)cc(OC)c1C2=O , KIDNEY_TOTAL read as 2.3

----------
# Organism: Rattus norvegicus
# assay.overview: Open TG-GATES - Regimen: Single
# Format: toxicity, organism-based, Sprague-Dawley
# Set-up: regimen Single, gender Male, age 6 weeks
# settings: in vivo, po, 0 mg/kg, 9 h, route gavage, dose level Control
Label Y when TERMINAL_BW < 200 g; otherwise N.

COc1ccc2[nH]c([S+]([O-])Cc3ncc(C)c(OC)c3C)nc2c1 (stereo not drawn) ... N

Now consider a different molecule.
Hello, is TERMINAL_BW of the following molecule strictly smaller than 200 g? CN(C)CCN(Cc1cccs1)c1ccccn1
Y

----------
compounds and their reported Eos
# Species: Rattus norvegicus
# assay.overview: Open TG-GATES - Regimen: Daily Repeat
# Format: toxicity, organism-based, Sprague-Dawley
# Design: regimen Daily Repeat, gender Male, age 6 weeks
# settings: in vivo, po, 0 mg/kg, […], tissue Blood, route gavage, dose level Control, time 14 day
Answer format: numeric, % implied, no suffix.

Previously resolved entries follow.
CCOc1ccc(NC(=O)CC(C)O)cc1 (centres undefined) ... 1
NNC(=O)c1ccncc1 ... 1.2
CN1C(=O)CN=C(c2ccccc2)c2cc(Cl)ccc21 ... 0.6

Proceeding to the next compound to report its Eos.
Notebook: O=C(CCCN1CCC(O)(c2ccc(Cl)cc2)CC1)c1ccc(F)cc1 , Eos read as 0.2

----------
molecules and their reported Plat
# Species: Rattus norvegicus
# assay.overview: Open TG-GATES - Regimen: Single
# Type: toxicity, organism-based, Sprague-Dawley
# Design: regimen Single, gender Male, age 6 weeks
# settings: in vivo, po, 300 mg/kg, 6 h, tissue Blood, route gavage, dose level Middle

Previously resolved entries follow.
NC(N)=Nc1nc(CSCCC(N)=NS(N)(=O)=O)cs1 ... 109.6 x10_4/uL
CCOC(=O)CCC(=O)O[C@H]1[C@H](O[C@@H]2[C@@H](C)[C@H](O[C@H]3C[C@@](C)(OC)[C@@H](O)[C@H](C)O3)[C@@H](C)C(=O)O[C@H](CC)[C@@](C)(O)[C@H](O)[C@@H](C)C(=O)[C@H](C)C[C@@]2(C)O)O[C@H](C)C[C@@H]1N(C)C [ERYTHROMYCIN ETHYLSUCCINATE] ... 115 x10_4/uL
COc1ccc2[nH]c([S+]([O-])Cc3ncc(C)c(OC)c3C)nc2c1 (centres undefined) ... 124 x10_4/uL

Proceeding to the next molecule to report its Plat.
Notebook: COC1=CC(=O)C[C@@H](C)[C@]12Oc1c(Cl)c(OC)cc(OC)c1C2=O , Plat read as 129.2 x10_4/uL

----------
# Organism: Rattus norvegicus
# assay.overview: Open TG-GATES - Regimen: Single
# Format: toxicity, organism-based, Sprague-Dawley
# Design: regimen Single, gender Male, age 6 weeks
# settings: in vivo, po, 0 mg/kg, 3 h, tissue Plasma, route gavage, dose level Control
Outcome: Yes for ALP of at least 1000 IU/L; No for anything lower.

These solved cases illustrate the format of a correct answer.
CN(C)CCN(Cc1cccs1)c1ccccn1 ... Yes
CN(C)CCCN1c2ccccc2CCc2ccc(Cl)cc21 ... Yes
CCCNC(=O)NS(=O)(=O)c1ccc(Cl)cc1 [CHLORPROPAMIDE] ... Yes
CN1C(=O)CN=C(c2ccccc2)c2cc(Cl)ccc21 ... No
COC1=CC(=O)C[C@@H](C)[C@]12Oc1c(Cl)c(OC)cc(OC)c1C2=O ... Yes

Textbook exercise: given the entry CCOC(=O)CCC(=O)O[C@H]1[C@H](O[C@@H]2[C@@H](C)[C@H](O[C@H]3C[C@@](C)(OC)[C@@H](O)[C@H](C)O3)[C@@H](C)C(=O)O[C@H](CC)[C@@](C)(O)[C@H](O)[C@@H](C)C(=O)[C@H](C)C[C@@]2(C)O)O[C@H](C)C[C@@H]1N(C)C [ERYTHROMYCIN ETHYLSUCCINATE] , state whether its ALP is greater than or equal to 1000 IU/L.
Yes

Textbook exercise: given the entry CN(C)CCCN1c2ccccc2CCc2ccccc21 , state whether its ALP is greater than or equal to 1000 IU/L.
Yes

Textbook exercise: given the entry NNC(=O)c1ccncc1 , state whether its ALP is greater than or equal to 1000 IU/L.
No

Textbook exercise: given the entry COc1cc2c(c(OC)c1OC)-c1ccc(OC)c(=O)cc1[C@@H](NC(C)=O)CC2 , state whether its ALP is greater than or equal to 1000 IU/L.
No

Textbook exercise: given the entry NC(N)=Nc1nc(CSCCC(N)=NS(N)(=O)=O)cs1 , state whether its ALP is greater than or equal to 1000 IU/L.
No

----------
# Species: Rattus norvegicus
# assay.overview: Open TG-GATES - Regimen: Single
# Type: toxicity, organism-based, Sprague-Dawley
# Design: regimen Single, gender Male, age 6 weeks
# settings: in vivo, po, 0 mg/kg, 3 h, tissue Blood, route gavage, dose level Control
measured.quantity: MCHC (%)
Answer format: numeric, % implied, no suffix.

CC1=C(/C=C/C(C)=C/C=C/C(C)=C/CO)C(C)(C)CCC1 ... 34.5

Notebook: NC(N)=Nc1nc(CSCCC(N)=NS(N)(=O)=O)cs1 , MCHC read as 35.5

Notebook: COC1=CC(=O)C[C@@H](C)[C@]12Oc1c(Cl)c(OC)cc(OC)c1C2=O , MCHC read as 34.1

Notebook: CN(C)CCCN1c2ccccc2CCc2ccccc21 , MCHC read as 32.3
